Reported viability, T/C values for a set of compounds
System: 935938-334-R-J1-PDC complex spheroid viability
test.details: Anticancer human tumor 935938-334-R-J1-PDC patient-derived small intestine adenocarcinoma cell line growth inhibition [POLQ]
condition.details: second compound 10 µM; first compound 0.0316 µM; hits give low values
Just the number please, in %, no unit attached.

As a guide, the following entries are already answered.
compound="C=CCn1c(=O)c2cnc(Nc3ccc(N4CCN(C)CC4)cc3)nc2n1-c1cccc(C(C)(C)O)n1 + Nc1ccc(C#CCN(C(=O)Cc2ncc(C(F)(F)F)cc2C(F)(F)F)c2ccc(F)cc2)nn1" recorded_metric="viability, T/C" recorded_result=118
compound="C#Cc1c(F)ccc2cc(O)cc(-c3ncc4c(N5CC6CCC(C5)N6)nc(OCC56CCCN5CC(F)C6)nc4c3F)c12 (stereo not drawn) + Cc1cccc(N(C)C(=O)C2C(O)CCN2c2nc(C)cc(C(F)(F)F)c2C#N)c1" recorded_metric="viability, T/C" recorded_result=85.4

Now for the compound whose viability, T/C we want.
## Input Which viability, T/C value belongs to CCc1cc2c(N3CCc4c(cc(Cn5ccnc5)cc4-c4cn(C)nc4C(F)(F)F)C3=O)ccnc2c(OC)n1 + COC1C(OC(N)=O)C(O)C(Oc2ccc3c(O)c(NC(=O)c4ccc(O)c(CC=C(C)C)c4)c(=O)oc3c2C)OC1(C)C ?
## Output 69.7

----------
Tested on: 935938-334-R-J1-PDC complex spheroid viability
test.details: Anticancer human tumor 935938-334-R-J1-PDC cell line growth inhibition [POLQ]
condition.details: second compound 10 µM; first compound 10 µM; hits give low values
Reported viability, T/C values for a set of compounds
Just the number please, in %, no unit attached.

As a guide, the following entries are already answered.
compound="COc1cc(C2c3cc4c(cc3C(OC3OC5COC(C)OC5C(O)C3O)C3COC(=O)C23)OCO4)cc(OC)c1O (stereo not drawn) + Nc1ccc(C#CCN(C(=O)Cc2ncc(C(F)(F)F)cc2C(F)(F)F)c2ccc(F)cc2)nn1" recorded_metric="viability, T/C" recorded_result=33.7
compound="O=C(c1cc(Cc2n[nH]c(=O)c3ccccc23)ccc1F)N1CCN(C(=O)C2CC2)CC1 + Cc1cccc(N(C)C(=O)C2C(O)CCN2c2nc(C)cc(C(F)(F)F)c2C#N)c1" recorded_metric="viability, T/C" recorded_result=47.5

Now for the compound whose viability, T/C we want.
## Input Which viability, T/C value belongs to O=c1[nH]cc(F)c(=O)[nH]1 + Cc1cccc(N(C)C(=O)C2C(O)CCN2c2nc(C)cc(C(F)(F)F)c2C#N)c1 ?
## Output 65.9

----------
System: 935938-334-R-J1-PDC complex spheroid viability
test.details: Anticancer human tumor 935938-334-R-J1-PDC cell line growth inhibition [POLQ];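 note: spheroids exposed to drugs for seven days before viability read; 100% = DMSO vehicle control wells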
condition.details: second compound 0.1 µM; first compound 10 µM; hits give low values
Reported viability, T/C values for a set of molecules
Just the number please, in %, no unit attached.

As a guide, the following entries are already answered.
molecule="CNCc1ccc(-c2[nH]c3cc(F)cc4c3c2CCNC4=O)cc1 + Nc1ccc(C#CCN(C(=O)Cc2ncc(C(F)(F)F)cc2C(F)(F)F)c2ccc(F)cc2)nn1" readout_unit=% recorded_result=96.5
molecule="C#Cc1c(F)ccc2cc(O)cc(-c3ncc4c(N5CC6CCC(C5)N6)nc(OCC56CCCN5CC(F)C6)nc4c3F)c12 (stereo unspecified) + Nc1ccc(C#CCN(C(=O)Cc2ncc(C(F)(F)F)cc2C(F)(F)F)c2ccc(F)cc2)nn1" readout_unit=% recorded_result=53.6
molecule="COc1cc2cc(C(=O)CCC(=O)O)sc2cc1OC + Nc1ccc(C#CCN(C(=O)Cc2ncc(C(F)(F)F)cc2C(F)(F)F)c2ccc(F)cc2)nn1" readout_unit=% recorded_result=87
molecule="CC(C)n1c(=O)n(C)c2cnc3cc(F)c(-c4ccc(OCCCN5CCCCC5)nc4)cc3c21 + Nc1ccc(C#CCN(C(=O)Cc2ncc(C(F)(F)F)cc2C(F)(F)F)c2ccc(F)cc2)nn1" readout_unit=% recorded_result=90.6
molecule="O=c1[nH]cc(F)c(=O)[nH]1 + Cc1cccc(N(C)C(=O)C2C(O)CCN2c2nc(C)cc(C(F)(F)F)c2C#N)c1" readout_unit=% recorded_result=67.7

Now for the molecule whose viability, T/C we want.
## Input Given the entry Nc1ccn(C2OC(CO)C(O)C2(F)F)c(=O)n1 (stereo unspecified) + Cc1cccc(N(C)C(=O)C2C(O)CCN2c2nc(C)cc(C(F)(F)F)c2C#N)c1 , what viability, T/C was observed with 935938-334-R-J1-PDC complex spheroid viability?
## Output 21.2

----------
System: 935938-334-R-J1-PDC complex spheroid viability
test.details: Anticancer human tumor 935938-334-R-J1-PDC cell line growth inhibition [POLQ];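 note: spheroids exposed to drugs for seven days before viability read; 100% = DMSO vehicle control wells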
condition.details: second compound 1 µM; first compound 0.1 µM; hits give low values
recorded.metric: viability, T/C (%)
Just the number please, in %, no unit attached.

compound="CCc1c2c(nc3ccc(O)cc13)-c1cc3c(c(=O)n1C2)COC(=O)[C@]3(O)CC + Nc1ccc(C#CCN(C(=O)Cc2ncc(C(F)(F)F)cc2C(F)(F)F)c2ccc(F)cc2)nn1" recorded_result=32.6
compound="CCCS(=O)(=O)Nc1ccc(F)c(C(=O)c2c[nH]c3ncc(-c4ccc(Cl)cc4)cc23)c1F + Cc1cccc(N(C)C(=O)C2C(O)CCN2c2nc(C)cc(C(F)(F)F)c2C#N)c1" recorded_result=125

## Input Given the entry CC(C)n1c(=O)n(C)c2cnc3cc(F)c(-c4ccc(OCCCN5CCCCC5)nc4)cc3c21 + Nc1ccc(C#CCN(C(=O)Cc2ncc(C(F)(F)F)cc2C(F)(F)F)c2ccc(F)cc2)nn1 , what viability, T/C was observed with 935938-334-R-J1-PDC complex spheroid viability?
## Output 77.8

## Input Given the entry COc1cccc(OCCCN)c1-c1cc(Nc2cnc(C#N)cn2)n[nH]1 + COC1C(OC(N)=O)C(O)C(Oc2ccc3c(O)c(NC(=O)c4ccc(O)c(CC=C(C)C)c4)c(=O)oc3c2C)OC1(C)C , what viability, T/C was observed with 935938-334-R-J1-PDC complex spheroid viability?
## Output 23.7

## Input Given the entry CC1COCCN1c1cc(C2(S(C)(=N)=O)CC2)nc(-c2ccnc3[nH]ccc23)n1 (stereo not given) + Nc1ccc(C#CCN(C(=O)Cc2ncc(C(F)(F)F)cc2C(F)(F)F)c2ccc(F)cc2)nn1 , what viability, T/C was observed with 935938-334-R-J1-PDC complex spheroid viability?
## Output 98.6

----------
Tested on: 935938-334-R-J1-PDC complex spheroid viability
test.details: Anticancer human tumor 935938-334-R-J1-PDC cell line growth inhibition [POLQ];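 note: spheroids exposed to drugs for seven days before viability read; 100% = DMSO vehicle control wells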
condition.details: second compound 10 µM; first compound 1 µM; hits give low values
Just a reminder that ties go to Criterion not met: only viability, T/C strictly below 10% counts as Criterion met.

// known answers, use as guide
compound="CC1COCCN1c1cc(-c2ccnn2C)c2ccnc(-c3ccn[nH]3)c2n1 (stereo not given) + COC1C(OC(N)=O)C(O)C(Oc2ccc3c(O)c(NC(=O)c4ccc(O)c(CC=C(C)C)c4)c(=O)oc3c2C)OC1(C)C" label="Criterion not met"
compound="CCc1cc2c(N3CCc4c(cc(Cn5ccnc5)cc4-c4cn(C)nc4C(F)(F)F)C3=O)ccnc2c(OC)n1 + Cc1cccc(N(C)C(=O)C2C(O)CCN2c2nc(C)cc(C(F)(F)F)c2C#N)c1" label="Criterion not met"

## Input Please state whether viability, T/C is below 10% for CNCc1ccc(-c2[nH]c3cc(F)cc4c3c2CCNC4=O)cc1 + Cc1cccc(N(C)C(=O)C2C(O)CCN2c2nc(C)cc(C(F)(F)F)c2C#N)c1
## Output Criterion not met

## Input Please state whether viability, T/C is below 10% for COc1cccc(OCCCN)c1-c1cc(Nc2cnc(C#N)cn2)n[nH]1 + COC1C(OC(N)=O)C(O)C(Oc2ccc3c(O)c(NC(=O)c4ccc(O)c(CC=C(C)C)c4)c(=O)oc3c2C)OC1(C)C
## Output Criterion met

## Input Please state whether viability, T/C is below 10% for O=C(c1cc(Cc2n[nH]c(=O)c3ccccc23)ccc1F)N1CCN(C(=O)C2CC2)CC1 + COC1C(OC(N)=O)C(O)C(Oc2ccc3c(O)c(NC(=O)c4ccc(O)c(CC=C(C)C)c4)c(=O)oc3c2C)OC1(C)C
## Output Criterion not met

----------
Test system: 935938-334-R-J1-PDC complex spheroid viability
test.details: Anticancer human tumor 935938-334-R-J1-PDC cell line growth inhibition [POLQ];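 note: spheroids exposed to drugs for seven days before viability read; 100% = DMSO vehicle control wells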
condition.details: second compound 0.1 µM; first compound 0.316 µM; hits give low values
Reported viability, T/C values for a set of compounds
Just the number please, in %, no unit attached.

As a guide, the following entries are already answered.
compound="CC1COCCN1c1cc(C2(O)CC3CCC(C2)O3)c2cnn(-c3ccn[nH]3)c2n1 (stereo not given) + Nc1ccc(C#CCN(C(=O)Cc2ncc(C(F)(F)F)cc2C(F)(F)F)c2ccc(F)cc2)nn1" tgt="935938-334-R-J1-PDC complex spheroid viability" recorded_metric="viability, T/C" recorded_result=35.5
compound="C=CCn1c(=O)c2cnc(Nc3ccc(N4CCN(C)CC4)cc3)nc2n1-c1cccc(C(C)(C)O)n1 + Nc1ccc(C#CCN(C(=O)Cc2ncc(C(F)(F)F)cc2C(F)(F)F)c2ccc(F)cc2)nn1" tgt="935938-334-R-J1-PDC complex spheroid viability" recorded_metric="viability, T/C" recorded_result=89.5

## Input Which viability, T/C value belongs to COc1cccc(OCCCN)c1-c1cc(Nc2cnc(C#N)cn2)n[nH]1 + COC1C(OC(N)=O)C(O)C(Oc2ccc3c(O)c(NC(=O)c4ccc(O)c(CC=C(C)C)c4)c(=O)oc3c2C)OC1(C)C ?
## Output 12.5

## Input Which viability, T/C value belongs to O=C(Nc1ccc(O)c(NS(=O)(=O)c2ccc(F)cc2)c1)c1ccc(-c2ccccc2)cc1 + Nc1ccc(C#CCN(C(=O)Cc2ncc(C(F)(F)F)cc2C(F)(F)F)c2ccc(F)cc2)nn1 ?
## Output 91.3

## Input Which viability, T/C value belongs to CC(C)n1c(=O)n(C)c2cnc3cc(F)c(-c4ccc(OCCCN5CCCCC5)nc4)cc3c21 + Cc1cccc(N(C)C(=O)C2C(O)CCN2c2nc(C)cc(C(F)(F)F)c2C#N)c1 ?
## Output 82.8
